Measured values drawn from patent US10758513B2 for this set.

target_of_assay: Erv1 (Saccharomyces cerevisiae)
Sequence (P27882 1-189): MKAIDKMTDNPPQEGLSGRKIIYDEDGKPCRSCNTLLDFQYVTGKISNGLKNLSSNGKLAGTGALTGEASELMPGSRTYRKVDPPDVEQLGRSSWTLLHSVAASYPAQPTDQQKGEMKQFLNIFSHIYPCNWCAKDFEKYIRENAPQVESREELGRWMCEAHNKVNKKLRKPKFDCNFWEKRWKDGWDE
measurement_type: pIC50
Numbers only, as −log10 of the molar value.

# lookup: Erv1 (Saccharomyces cerevisiae) pIC50, key = `Oc1c(Cl)cc(Cl)cc1/C=N/c1ccc(Nc2ccccc2)cc1`
6.05
